Tested on: NK cells
assay: Cytotoxicity of NK cells against K562 NanoLuc-expressing target cells (bioluminescence lysis assay)
Type: cell-based
details: Homo sapiens; pyruvate 0.01 to 10 mM for 3 hours, then co-cultured for 4 hours with K562 NanoLuc-expressing target cells; read-out: EC50 for the cytotoxicity of the NK cells (the pyruvate concentration at which the cytotoxicity is half-maximal)

{"columns": ["compound", "EC50 / µM"],
 "data": [
  ["CC(=O)C(=O)O [pyruvate]", 260]
]}

Taken from patent EP4567103A1.
